Origin of the recorded values: ChEMBL document CHEMBL3885861

- Organism: Rattus norvegicus
- Protocol details: Open TG-GATES - Regimen: Single
- Format: toxicity, organism-based, Sprague-Dawley
- Design: regimen Single, gender Male, age 6 weeks
- Reported conditions: in vivo, po, 1000 mg/kg, 6 h, tissue Blood, route gavage, dose level High
Observation type: Plat (x10_4/uL)
The answer is to be given in x10_4/uL; state only the numeric part.

INPUT: // Plat lookup, key: COC1=CC(=O)C[C@@H](C)[C@]12Oc1c(Cl)c(OC)cc(OC)c1C2=O
OUTPUT: 123.4

----------
- Species: Rattus norvegicus
- Protocol details: Open TG-GATES - Regimen: Daily Repeat
- Type: toxicity, organism-based, Sprague-Dawley
- Set-up: regimen Daily Repeat, gender Male, age 6 weeks
- Reported conditions: in vivo, po, 0 mg/kg, […], tissue Blood, route gavage, dose level Control, time 28 day
Consider the cut-off 100 x10_2/uL. If the recorded WBC is strictly smaller, the label is y; if not, the label is n.

Before answering, review these 4 worked examples.
compound="CC(C)OC(=O)C(C)(C)Oc1ccc(C(=O)c2ccc(Cl)cc2)cc1 [FENOFIBRATE]" class=n
compound="CCCNC(=O)NS(=O)(=O)c1ccc(Cl)cc1 [CHLORPROPAMIDE]" class=n
compound=CC1=C(/C=C/C(C)=C/C=C/C(C)=C/CO)C(C)(C)CCC1 class=n
compound=CN1C(=O)CN=C(c2ccccc2)c2cc(Cl)ccc21 class=n

INPUT: Field: below-cutoff. Rule: recorded WBC strictly less than 100 x10_2/uL. Subject: CN(C)CCN(Cc1cccs1)c1ccccn1
OUTPUT: y

INPUT: Field: below-cutoff. Rule: recorded WBC strictly less than 100 x10_2/uL. Subject: NNC(=O)c1ccncc1
OUTPUT: n
